The reported measurements were obtained from patent US8518956B2.

- SYSTEM NAME: PDE6 enzyme
- PROTOCOL CONDITIONS: read-out: METHOD 2: PDE6 IC50; Table F, WO2004096810 examples
pIC50: −log10 of the molar value.
Parameter threshold = 7. Response is Yes when pIC50 meets or exceeds it, else No.

{"columns": ["MOLECULE", "SYSTEM NAME", "GROUP LABEL"],
 "data": [
  ["COCc1nn(CCOCC(F)(F)F)c2c(Nc3cccc(C)n3)nc(N3CCN[C@H](C)C3)nc12 [WO2004096810 Example 252]", "PDE6 enzyme", "No"],
  ["CCOCc1nn(CCOCC(F)(F)F)c2c(Nc3cc(C)ccn3)nc(N3CCN[C@H](C)C3)nc12 [WO2004096810 Example 256]", "PDE6 enzyme", "No"],
  ["CCN(C)c1nc(Nc2ccc(=O)n(C)c2)c2c(n1)c(COC)nn2CCOCC(F)(F)F [WO2004096810 Example 254]", "PDE6 enzyme", "No"],
  ["CCc1nn(CCOCC(F)(F)F)c2c(Nc3ccncn3)nc(N3CCN[C@H](C)C3)nc12 [WO2004096810 Example 249]", "PDE6 enzyme", "Yes"],
  ["Cc1cc(Nc2nc(N3CCC(C(=O)O)CC3)nc3c(C)nn(CCOCC(F)(F)F)c23)ncn1 [WO2004096810 Example 262]", "PDE6 enzyme", "Yes"],
  ["CCOCc1nn(CCOCC(F)(F)F)c2c(Nc3cccc(C)n3)nc(N3CCN[C@H](C)C3)nc12 [WO2004096810 Example 255]", "PDE6 enzyme", "No"],
  ["CCc1nn(CCOCC(F)(F)F)c2c(Nc3cc(C)ncn3)nc(N(C)C3CCN(C)CC3)nc12 [WO2004096810 Example 251]", "PDE6 enzyme", "Yes"]
]}

---

- SYSTEM NAME: PDE6 enzyme
- PROTOCOL CONDITIONS: read-out: METHOD 2: PDE6 IC50; Table F, WO2004096810 examples
pIC50: −log10 of the molar value.
Quick reference: pIC50 of the listed items.
RESULT TYPE: pIC50

{"columns": ["COMPOUND STRING", "RESULT TYPE", "QUANTITATIVE READOUT"],
 "data": [
  ["CCc1nn(CCOCC(F)(F)F)c2c(Nc3ccnc(C)n3)nc(N3CCN[C@H](C)C3)nc12", "pIC50", 6.66],
  ["Cc1nccc(Nc2nc(N3CCN[C@H](C)C3)nc3c(C)nn(CCOCC(F)(F)F)c23)n1", "pIC50", 6.18],
  ["Cc1ccnc(Nc2nc(N(C)[C@H]3CCN(C)C3)nc3c(C)nn(CCOCC(F)(F)F)c23)c1", "pIC50", 6.60],
  ["Cc1cccc(Nc2nc(N3CCNCC3)nc3c(C)nn(CCOCC(F)(F)F)c23)n1", "pIC50", 6.70],
  ["COCc1nn(CCOCC(F)(F)F)c2c(Nc3cc(C)ccn3)nc(N3CC4CCC(C3)N4)nc12", "pIC50", 6.69],
  ["COCc1nn(CCOCC(F)(F)F)c2c(Nc3cccc(C)c3)nc(N3CCN[C@H](C)C3)nc12", "pIC50", 7.00],
  ["CCc1nn(CCOCC(F)(F)F)c2c(Nc3ccnnc3)nc(N3CCN[C@H](C)C3)nc12", "pIC50", 8.00],
  ["CCc1nn(CCOCC(F)(F)F)c2c(Nc3cc(C)ncn3)nc(N3CCC(C(=O)O)CC3)nc12", "pIC50", 7.60],
  ["Cc1ccnc(Nc2nc(N3CCC(C(=O)O)CC3)nc3c(C)nn(CCOCC(F)(F)F)c23)c1", "pIC50", 7.23]
]}
